Exercise: for every item that follows, state its recorded IC50.
# Tested Target: WRN (BV08), human Werner helicase (Uniprot Q14191, amino acids 517-1235 with L1074F point mutation) (Homo sapiens (Human), UniProt Q14191, L1074F)
# Sequence (Q14191 other isoform, or with tags, fused parts or gaps L1074F (already in the parent)): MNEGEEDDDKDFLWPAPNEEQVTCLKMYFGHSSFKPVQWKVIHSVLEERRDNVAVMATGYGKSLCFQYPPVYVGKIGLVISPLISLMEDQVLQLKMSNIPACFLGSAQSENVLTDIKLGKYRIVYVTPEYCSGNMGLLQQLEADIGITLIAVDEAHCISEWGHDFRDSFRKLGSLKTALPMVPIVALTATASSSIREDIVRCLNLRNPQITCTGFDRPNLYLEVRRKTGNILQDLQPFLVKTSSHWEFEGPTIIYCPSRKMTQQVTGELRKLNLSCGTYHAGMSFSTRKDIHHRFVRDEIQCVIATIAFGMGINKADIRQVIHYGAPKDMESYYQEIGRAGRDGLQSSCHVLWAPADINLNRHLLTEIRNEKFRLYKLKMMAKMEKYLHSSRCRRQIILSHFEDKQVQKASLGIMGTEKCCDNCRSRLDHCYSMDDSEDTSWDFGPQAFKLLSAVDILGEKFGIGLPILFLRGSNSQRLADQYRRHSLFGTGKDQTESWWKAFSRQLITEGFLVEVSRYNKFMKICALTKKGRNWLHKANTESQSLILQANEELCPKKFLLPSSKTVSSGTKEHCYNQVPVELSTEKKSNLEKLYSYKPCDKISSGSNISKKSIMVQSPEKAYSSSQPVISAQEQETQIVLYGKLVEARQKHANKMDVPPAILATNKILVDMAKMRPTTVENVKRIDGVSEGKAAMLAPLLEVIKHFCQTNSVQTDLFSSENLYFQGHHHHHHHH
# Protocol Description: WRN (BV08) ADP-Glo assay
# Stated Conditions: class symbols A-E, read-out: ADP-Glo_hWRN_IC50

Known IC50 results, listed for orientation:
[
  {
    "Compound": "CCc1c(N2CCN(C(=O)c3ncnc(C)c3O)CC2)c(=O)c2ncc(C)nc2n1CC(=O)Nc1ccc(C(F)(F)F)cc1Cl",
    "IC50": "5 to 50 nM"
  },
  {
    "Compound": "CCc1c(N2CCN(C(=O)c3nccc(Cl)c3O)CC2)c(=O)c2nc(N(C)C)cnc2n1CC(=O)Nc1ccc(C(F)(F)F)cc1Cl",
    "IC50": "≤ 5 nM"
  },
  {
    "Compound": "CCc1c(N2CCN(C(=O)c3c(OC)ncc(C)c3O)[C@H]3CC[C@@H]32)c(=O)c2nc(C)c(C)nc2n1CC(=O)Nc1ccc(C(F)(F)F)cc1Cl",
    "IC50": "5 to 50 nM"
  }
]

Working through the 3 compounds below one at a time, give IC50 for each.
1. CCc1c(N2CCN(C(=O)c3ncnc(C)c3O)CC2)c(=O)c2nc(OC)c(C)nc2n1CC(=O)Nc1ccc(C(F)(F)F)cc1Cl
2. CCO/C=C/c1cnc2c(n1)c(=O)c(N1CCN(C(=O)c3ncnc(C)c3O)CC1)c(CC)n2CC(=O)Nc1ccc(C(F)(F)F)cc1Cl
3. CCc1c(N2CCN(C(=O)c3ncnc(C)c3O)[C@H]3CC[C@@H]32)c(=O)c2nc(N3CC(F)(F)C3)cnc2n1CC(=O)Nc1ccc(C(F)(F)F)cc1Cl

Output:
["5 to 50 nM", "5 to 50 nM", "5 to 50 nM"]
